Origin of measurements: patent US9328099B2

Target: JAK2 (Homo sapiens (Human))
Assay: Jak Biochemical HTRF Assay, JAK2
Settings: HTRF biochemical assay, GST-tagged catalytic domain; top concentration tested […]
Readout kind: IC50 (nM)

Here is how some compounds turned out for IC50.
compound="Cc1cccc(Cl)c1NC(=O)N1CC(CC#N)(n2cc(C(N)=O)c(Nc3ccccc3)n2)C1 [Example 38-24]" readout_kind=IC50 measured_value=179
compound="N#CCC1(n2cc(C(N)=O)c(Nc3ccccc3)n2)CN(S(=O)(=O)C(F)(F)F)C1 [Example 37-18]" readout_kind=IC50 measured_value=585
compound="CC(=O)N1CC(CC#N)(n2cc(C(N)=O)c(Nc3ccccc3)n2)C1 [Example 32]" readout_kind=IC50 measured_value=510
compound="COc1ccccc1COC(=O)N1CC(CC#N)(n2cc(C(N)=O)c(Nc3ccccc3)n2)C1 [Example 30-69]" readout_kind=IC50 measured_value=671
compound="CSCCCN1CCC(CC#N)(n2cc(C(N)=O)c(Nc3ccccc3)n2)CC1 [Example 21-15]" readout_kind=IC50 measured_value=242

[a] CC(C)(C)C(=O)N1CC(CC#N)(n2cc(C(N)=O)c(Nc3ccccc3)n2)C1 [Example 34-37]
[b] N#CCC1(n2cc(C(N)=O)c(Nc3ccc(F)cc3)n2)CCC(Nc2ccc(Cl)cc2)CC1 (stereo not shown) [Example 40-52]
Which value of IC50 is numerically greater: that of a or that of b ? Which one? Tell me its label.
a

----------
Molecular target: JAK2 (Homo sapiens (Human))
Test: Jak Biochemical HTRF Assay, JAK2
Details: HTRF biochemical assay, GST-tagged catalytic domain; top concentration tested […]
pIC50: −log10 of the molar value.
Readout kind: pIC50

compound="CC(C)(C)OC(=O)N1CCC(CC#N)(n2cc(C(N)=O)c(Nc3cccnc3)n2)CC1 [Example 9-34]" readout_kind=pIC50 measured_value=8.40

[P] CC(C)(C)OC(=O)N1CCC(CC#N)(n2cc(C(N)=O)c(Nc3ccc(C(C)(C)O)cc3)n2)CC1 [Example 9-8]
[Q] CCCCC(=O)N1CCC(CC#N)(n2cc(C(N)=O)c(Nc3ccccc3)n2)CC1 [Example 34-4]
[R] Cc1cc(N2CCC(CC#N)(n3cc(C(N)=O)c(Nc4ccc(F)cc4)n3)CC2)ccc1F [Example 3-42]
In this exercise, place the 3 compounds in ascending sequence of their recorded pIC50. Rank them, then answer with their labels in that order.
R, Q, P
(R: 6.54, Q: 7.15, P: 8.52)

----------
Target: JAK1 (Homo sapiens (Human), UniProt P23458)
Sequence (P23458 875-1153): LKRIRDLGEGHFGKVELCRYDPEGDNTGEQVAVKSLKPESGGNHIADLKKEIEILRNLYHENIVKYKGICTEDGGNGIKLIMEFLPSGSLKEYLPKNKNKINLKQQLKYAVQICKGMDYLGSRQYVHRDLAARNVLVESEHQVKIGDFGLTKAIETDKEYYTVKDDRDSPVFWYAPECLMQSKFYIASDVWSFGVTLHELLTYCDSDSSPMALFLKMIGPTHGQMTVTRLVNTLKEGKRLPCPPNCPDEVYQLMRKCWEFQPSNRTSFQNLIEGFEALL
Assay: Jak Biochemical HTRF Assay, JAK1
Conditions: HTRF biochemical assay, GST-tagged catalytic domain; top concentration tested […]; read-out: JAK1 IC50
Excerpt: Jak Biochemical HTRF Assay Protocol Subsequent reagent additions employed an Agilent Bravo.
Readout kind: IC50 (nM)

Check out these entries, answers already filled in.
compound=Cc1cnc(F)c(CN2CCC(CC#N)(n3cc(C(N)=O)c(Nc4ccc(F)cc4)n3)CC2)c1 readout_kind=IC50 measured_value=5
compound="N#CCC1(n2cc(C(N)=O)c(Nc3ccc(F)cc3)n2)CCC(NCC(F)F)CC1 (stereo not shown)" readout_kind=IC50 measured_value=0.7

[1] N#CCC1(n2cc(C(N)=O)c(Nc3ccc(F)cc3)n2)CCN(C(=O)OCC2CCOCC2)CC1
[2] CCS(=O)(=O)N1CC(CC#N)(n2cc(C(N)=O)c(Nc3ccccc3)n2)C1
Param metric = IC50; output whichever of 1 , 2 has the minimum value. Reply with the label of the item you choose.
1

----------
Target: JAK1 (Homo sapiens (Human))
Experiment: Jak Biochemical HTRF Assay, JAK1
Conditions: HTRF biochemical assay, GST-tagged catalytic domain; top concentration tested […]; read-out: JAK1 IC50
Readout kind: IC50 (nM)

compound="N#CCC1(n2cc(C(N)=O)c(Nc3ccc(F)cc3)n2)CCC(N2CCC2)CC1 (stereo not shown)" readout_kind=IC50 measured_value=14

[1] N#CCC1(n2cc(C(N)=O)c(Nc3ccc(F)cc3)n2)CCN(Cc2cccc3[nH]ccc23)CC1
[2] CC(=O)Nc1ccc(CN2CCC(CC#N)(n3cc(C(N)=O)c(Nc4ccccc4)n3)CC2)cc1
[3] CC(C)(C)OC(=O)N1CC[C@@](CC#N)(n2cc(C(N)=O)c(Nc3ccc(F)cc3)n2)[C@H](F)C1 (single isomer, unassigned)
Order the records so the highest IC50 appears first and the lowest last. Answer format: the labels, in the requested order.
1, 2, 3

----------
Molecular target: JAK2 (Homo sapiens (Human), UniProt O60674)
Sequence (O60674 849-1124): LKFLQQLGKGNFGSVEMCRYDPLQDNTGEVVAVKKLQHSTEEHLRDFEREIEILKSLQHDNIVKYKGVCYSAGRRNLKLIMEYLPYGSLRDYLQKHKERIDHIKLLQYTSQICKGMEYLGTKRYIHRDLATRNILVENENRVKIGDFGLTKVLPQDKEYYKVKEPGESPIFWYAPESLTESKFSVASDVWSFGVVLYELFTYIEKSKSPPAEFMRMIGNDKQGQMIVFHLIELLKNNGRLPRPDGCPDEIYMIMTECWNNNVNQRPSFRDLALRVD
Experiment: Jak Biochemical HTRF Assay, JAK2
Readout kind: IC50 (nM)
Respond numerically; units are nM and should not be typed.

Some solved cases for reference:
compound="N#CCC1(n2cc(C(N)=O)c(Nc3ccc(S(=O)(=O)C(F)F)cc3)n2)CCC(Nc2ccccc2O)CC1 (centres unmarked) [Example 40-32]" measured_value=177
compound="N#CC[C@]1(n2cc(C(N)=O)c(Nc3ccccc3)n2)CC[C@H](C(=O)NCC(F)(F)F)CC1 [Example 45-2]" measured_value=1480
compound="N#CCC1(n2cc(C(N)=O)c(Nc3ccc(S(=O)(=O)C(F)F)cc3)n2)CCC(Nc2cccnc2)CC1 (centres unmarked) [Example 40-9]" measured_value=352
compound="N#CCC1(n2cc(C(N)=O)c(Nc3ccc(S(=O)(=O)C(F)F)cc3)n2)CCC(Nc2ccc(O)cc2)CC1 (centres unmarked) [Example 40-7]" measured_value=36

I'm curious: which IC50 was measured for COC(=O)C(C)(C)OC(=O)N1CCC(CC#N)(n2cc(C(N)=O)c(Nc3ccc(F)cc3)n2)CC1 [Example 29-A] tested on JAK2 (Homo sapiens (Human), UniProt O60674)?
40

Any idea what IC50 came out for N#CC[C@]1(n2cc(C(N)=O)c(Nc3ccccc3)n2)CC[C@@H](C(=O)NCC(F)(F)F)CC1 [Example 45-1] on JAK2 (Homo sapiens (Human), UniProt O60674)?
301

Value wanted: IC50 (JAK2 (Homo sapiens (Human), UniProt O60674)) of entry N#CCC1(n2cc(C(N)=O)c(Nc3ccc(S(=O)(=O)C(F)F)cc3)n2)CCC(Nc2cccc(O)c2)CC1 (centres unmarked) [Example 40-44]
0.8

Lookup: IC50 / JAK2 (Homo sapiens (Human), UniProt O60674) / N#CCC1(n2cc(C(N)=O)c(Nc3ccc(S(=O)(=O)C(F)F)cc3)n2)CCC(Nc2cccc(O)c2)CC1 (centres unmarked) [Example 40-14]
65

----------
Biological target: JAK1 (Homo sapiens (Human))
Experiment: Jak Biochemical HTRF Assay, JAK1
Conditions: HTRF biochemical assay, GST-tagged catalytic domain; top concentration tested […]; read-out: JAK1 IC50
pIC50: −log10 of the molar value.
Readout kind: pIC50

smiles_data=N#CCC1(n2cc(C(N)=O)c(Nc3ccccc3)n2)CCN(S(=O)(=O)C2CC2)CC1 measured_value=9.40
smiles_data=N#CCC1(n2cc(C(N)=O)c(Nc3ccc(F)cc3)n2)CCN(C(=O)OCC2(O)CC2)CC1 measured_value=9.05

[1] CCc1cccc(C)c1NC(=O)N1CC(CC#N)(n2cc(C(N)=O)c(Nc3ccccc3)n2)C1
[2] Cn1cc(-c2cccc(Nc3nn(C4(CC#N)CCN(C(=O)OCC(F)(F)F)CC4)cc3C(N)=O)c2)cn1
Endpoint returns whichever of 1 and 2 has the numerically higher pIC50. Record your answer as the label of the chosen record.
2
(2: 9.70, 1: 7.03)

[P] N#CCC1(n2cc(C(N)=O)c(Nc3ccc(F)cc3)n2)CCN(Cc2ccco2)CC1
[Q] Cn1nccc1CN1CCC(CC#N)(n2cc(C(N)=O)c(Nc3ccnc(F)c3)n2)CC1
// which entry has the larger pIC50 value, P or Q ? Pick one; state its label.
P

[1] Cc1noc(C)c1-c1ccc(Nc2nn(C3(CC#N)CCN(C(=O)OC(C)(C)C)CC3)cc2C(N)=O)cc1
[2] CCOc1ccccc1NC(=O)N1CC(CC#N)(n2cc(C(N)=O)c(Nc3ccccc3)n2)C1
Two entries are listed, 1 and 2 . Which one carries the higher pIC50? Your answer should be the label of the entry you select.
1

----------
Target: JAK2 (Homo sapiens (Human), UniProt O60674)
Assay: Jak Biochemical HTRF Assay, JAK2
Conditions: HTRF biochemical assay, GST-tagged catalytic domain; top concentration tested […]
Readout kind: IC50 (µM)

[1] CN(C)CCCOC(=O)N1CC(CC#N)(n2cc(C(N)=O)c(Nc3ccccc3)n2)C1
[2] Cc1ccnc(N2CCC(CC#N)(n3cc(C(N)=O)c(Nc4ccc(F)cc4)n3)CC2)c1
[3] COCCOC(=O)N1CCC(CC#N)(n2cc(C(N)=O)c(Nc3ccc(S(=O)(=O)C(F)(F)F)cc3)n2)CC1
[4] CS(=O)(=O)c1ccc(Nc2nn(C3(CC#N)CN(C(=O)OC4CCOCC4)C3)cc2C(N)=O)cc1
Arrange these compounds by their IC50, starting with the largest number. The response must list the labels following the requested ordering.
1, 4, 2, 3
